Hello, the source for this data is PubChem BioAssay (NCI), in case you need it.

Test system: BT-549 breast
Assay: NCI-60 one-dose screen, 48 h (100 = growth as untreated, 0 = no growth, -100 = all killed)
Conditions: 10 µM unless noted
About 83,000 compounds went through this panel and 20% of them were active in at least one assay; those are over-represented in the sample as a whole.
# note: exactly -20% is not below, so it is criterion not met; use criterion met for growth strictly under it

COc1ccc(/C=N/NC(=O)c2[nH]c3ccc(Br)cc3c2-c2ccccc2)s1 :: criterion not met

Regarding COc1cc(/C=C/C(=O)c2ccc(C)cc2)ccc1Oc1nc(NCCO)nc(N2CCOCC2)n1 , kindly confirm whether its growth is beneath -20%.
criterion met

Next up: Cc1nc2cnc(N)c(C#Cc3cncc(C(=O)Nc4ccc(Cl)c(C(F)(F)F)c4)c3)c2nc1C
criterion not met

Next up: O=C(N/N=C/c1ccc[nH]1)c1[nH]c2ccc(Br)cc2c1-c1ccccc1
criterion not met

Next up: Cc1ccc2c(n1)C(=O)C(Cl)=C(Nc1cccc(C(C)C)c1)C2=O
criterion not met

###

Test system: NCI-H460 lung
Assay: NCI-60 one-dose screen, 48 h (100 = growth as untreated, 0 = no growth, -100 = all killed)
Conditions: 10 µM unless noted
The panel holds about 83,000 compounds, 20% with a hit somewhere; the sample as a whole holds those more often.
So basically: growth at 90% or higher? That is 1.0. Lower than 90%? That is 0.0.

C/C(=C(/c1ccc(Cl)cc1)c1ccc(OCCN)cc1)c1ccc(C)cc1 :: 1.0
O=C1Nc2cc(Cl)ccc2/C1=C\c1ccc(OCc2ccc([N+](=O)[O-])cc2)cc1 :: 0.0
CCOC(=O)c1c(Nc2ccccc2)nn2c(N)c(C#N)c(-c3ccccc3)nc12 :: 1.0
O=C1NC(=C(Cl)Cl)/C(=N/S(=O)(=O)N2CCCCC2CC2(C(F)(F)F)N=N2)N1 (stereo not given) :: 0.0
O=C(CCN1C(=O)/C(=C/c2ccccc2)SC1=S)N1CCOCC1 :: 1.0
COc1ccc(CNS(=O)(=O)/N=C2\NC(=O)NC2=C(Cl)Cl)cc1 :: 0.0
C#Cc1nc(C2=C(C)C(=O)/C(=N/OC(C)=O)C2)cs1 :: 1.0
Clc1ccc2c(NCCCN3CCOCC3)c3oc4ccc(Cl)cc4c3nc2c1 :: 0.0

// inclusive: growth at least 90%? input: N/C(=N\c1nc2c(Cl)cc(Cl)cc2s1)C(Cl)(Cl)Cl
0.0

Next up: Cn1c(SCC(=O)c2cccs2)nc2ccccc2c1=O
1.0

Next up: CO/N=C1\CCc2c(sc(NC(=O)c3cccc(C(F)(F)F)c3)c2C(N)=O)C1
0.0

###

Tested on: NCI-H322M lung
Assay: NCI-60 one-dose screen, 48 h (100 = growth as untreated, 0 = no growth, -100 = all killed)
Details: 10 µM unless noted
This is part of a sample that, as a whole, favours compounds with a hit. Of some 83,000 tested, about 20% had one in any assay.
Measured growth, listed per entry for reference.
# number only, unit % dropped from output

These solved cases illustrate the format of a correct answer.
CN1CCN(Cc2ccc(NC(=O)c3cncc(C#Cc4cnc5[nH]ncc5c4)c3)cc2C(F)(F)F)CC1 :: 45.8
O=C(NNc1nc2cc(F)ccc2n2c(CN3CC4(COC4)C3)ccc12)c1cnccn1 :: 22.7
COc1cc2nc(-c3ccc(C)cc3)cc(OCCCNCC3CCCO3)c2cc1OC (stereo not given) :: 70.4
CCN1CCN(S(=O)(=O)c2oc(-c3ccc(Cl)cc3)nc2C#N)CC1 :: 96.5
COc1ccc(C(=O)/C=C/c2ccc(Oc3nc(NCCO)nc(N4CCOCC4)n3)c(OC)c2)cc1 :: 96.6
N[C@@H](Cc1cn(-c2c3ccccc3nc3ccccc23)nn1)C(=O)O :: 98.3
Cc1ccc(CNS(=O)(=O)/N=C2\NC(=O)NC2=C(Cl)Cl)cc1 :: 99.9
COc1cc(N=Cc2sc(Nc3nccs3)nc2O)cc(OC)c1OC :: 74
C#Cc1nc(C2=C(C)C(=O)/C(=N/OC(C)=O)C2)cs1 :: 101
CC(C)(C)Nc1nc2c(OCCc3ccccc3)cccn2c1-c1ccccc1Cl :: 8.57

# growth lookup, item Cc1nc(-c2cc3ccccc3oc2=O)ccc1C(=O)/C=C/c1ccccn1
86.3

Next up: COC(=O)C(C)NS(=O)(=O)/N=C1\NC(=O)NC1=C(Cl)Cl (stereo not given)
102

Next up: CCCC(=O)NC(c1ccc2c(c1)OC(F)(F)O2)c1cc(C)c2cccnc2c1O (stereo not given)
34.2

Next up: CS(=O)(=O)c1ccc(-c2nc3ccccn3c2-c2nc3ccc([N+](=O)[O-])cc3[nH]2)cc1
92

Next up: COc1ccc(NC2=C(Cl)C(=O)C(C)=C(C)C2=O)cc1OC
101

Next up: COc1ccc(C(=O)c2cc(C(=O)/C=C/c3c(Cl)cccc3Cl)c3cc(C)ccn23)cc1
98.3

Next up: Nc1c(C(=O)Nc2ccc(Cl)cc2)sc2nc(-c3cnccn3)cc(-c3cccs3)c12
70.2

Next up: Cc1ccc2c(n1)C(=O)C(Cl)=C(Nc1cccc(C(C)C)c1)C2=O
85

Next up: COc1cc(-c2nc3ccc(-c4nnc(SCC(=O)Nc5ccc(C(=O)/C=C/c6ccc(Cl)cc6)cc5)o4)cc3[nH]2)cc(OC)c1OC
96.2

Next up: COc1cc(OC)c(C2C(Cl)C(=O)N2Nc2ncnc3ccccc23)cc1OC (stereo not given)
92.3

Next up: NC(=O)c1cc(-c2ccc3ncnc(N4CCc5cc(F)c(Cl)cc54)c3c2)cnc1N
-3.06

Next up: COc1cc(/C=C/C(=O)c2cc(OC)c(OC)c(OC)c2)ccc1OCc1ccc(F)cc1
49.7

Next up: COC(=O)C1CCCN(S(=O)(=O)/N=C2\NC(=O)NC2=C(Cl)Cl)C1 (stereo not given)
103

###

System: NCI/ADR-RES ovarian
Assay: NCI-60 one-dose screen, 48 h
Conditions: 10 µM unless noted
About 83,000 compounds went through this panel and 20% of them were active in at least one assay; those are over-represented in the sample as a whole. Calls of active or inactive are those of the source. Rule for the calls: active = growth percent below 10; inactive = the rest.
Hi! Could you answer with just one of these? active, inactive

For orientation, consider the following solved cases.
O=C(O)CCCCCN1C(=O)/C(=C/c2ccc(O)c(O)c2)SC1=S :: inactive
Clc1ccc2c(OCCCN3CCOCC3)c3oc4ccccc4c3nc2c1 :: inactive
Clc1ccc2oc3c(NCCCn4ccnc4)c4ccccc4nc3c2c1 :: inactive

Hey, what did the test say about O=C(CSc1nc2sc3c(c2c(=O)n1-c1ccc(Cl)cc1)CCCC3)N/N=C/c1ccc(F)cc1 ?
inactive

Next up: O=C1C2=C(C(=O)c3c(O)cccc31)C(c1ccco1)c1sc(=O)[nH]c1S2 (stereo not drawn)
active

Next up: COc1cc(/C=C/C(=O)c2cc(OC)c(OC)c(OC)c2)ccc1OCc1ccccc1
inactive

Next up: CN(C)CCCOc1c2ccccc2nc2c1oc1ccc(Cl)cc12
active

Next up: COc1ccc(C(=O)/C=C/c2ccc(OCc3ccc(C)cc3)c(OC)c2)cc1OC
inactive

###

Test system: COLO 205 colon
Assay: NCI-60 one-dose screen, 48 h
Conditions: 10 µM unless noted
The panel holds about 83,000 compounds, 20% with a hit somewhere; the sample as a whole holds those more often. Activity calls are given as the source filed them. The calls were made as follows: active = growth percent below 10; inactive = the rest.
Hi! Could you answer with just one of these? active, inactive

For orientation, consider the following solved cases.
CN(C)c1ccc(/C=C2\Cc3c(F)ccc(Br)c3C2=O)cc1 :: inactive
Clc1ccc(Cc2nnc3sc(-c4cccnc4)nn23)cc1 :: inactive
CN1CCN(Cc2ccc(NC(=O)c3cncc(C#Cc4cnc5[nH]ncc5c4)c3)cc2C(F)(F)F)CC1 :: inactive
Nc1cc(-c2c[nH]c3ccccc23)nc2cc(-c3c[nH]c4ccccc34)nn12 :: inactive
O=C(N/N=C/c1ccc(Br)s1)c1[nH]c2ccc(Br)cc2c1-c1ccccc1 :: active

Hey, what did the test say about CCCC(=O)NC(c1ccc(N(CC)CC)cc1)c1cc(C)c2cccnc2c1O (stereo not given) ?
inactive

Next up: Cc1ccccc1NC(=O)/C=C/c1ccc(OCCOc2ccc3c(C)cc(=O)oc3c2)cc1
inactive

Next up: Cn1c(SCC(=O)Nc2ccc(-c3nc4ccc([N+](=O)[O-])cc4[nH]3)cc2)nc2ccccc2c1=O
inactive

Next up: CCCC(=O)NC(c1ccc2c(c1)OC(F)(F)O2)c1cc(C)c2cccnc2c1O (stereo not given)
inactive

Next up: C#Cc1nc(C2=C(C)C(O)/C(=N/O)C2)cs1 (stereo not given)
inactive

###

System: NCI-H522 lung
Experiment: NCI-60 one-dose screen, 48 h
Conditions: 10 µM unless noted
The panel holds about 83,000 compounds, 20% with a hit somewhere; the sample as a whole holds those more often. Activity calls are given as the source filed them. Rule for the calls: active = growth percent below 10; inactive = the rest.
Hi! Could you answer with just one of these? active, inactive

For orientation, consider the following solved cases.
c1ccc2c(NCCCn3ccnc3)c3oc4ccccc4c3nc2c1 :: active
O=C(N/N=C/c1ccco1)c1[nH]c2ccc(Br)cc2c1-c1ccccc1 :: active
COc1ccc(/C=C2\SC(=Nc3cc(C)[nH]n3)NC2=O)cc1 :: inactive
CC(=O)Oc1ccccc1C(=O)Nc1ccc(C(=O)/C=C/c2ccncc2)cc1 :: inactive
Nc1nc(N)c2c(n1)NC(c1ccc(C(F)(F)F)cc1)CC(c1ccc(Nc3nc(NCCO)nc(Nc4ccc(Cl)cc4)n3)cc1)=N2 (stereo not given) :: active
COc1cc(/C=C/C(=O)c2cc(OC)c(OC)c(OC)c2)ccc1Oc1nc(NCCO)nc(N2CCOCC2)n1 :: active
COc1ccccc1/C=C/C=N/NC1=NC2C(S1)N(C)C(=O)N2C (stereo not given) :: active
C/C(=N/NC(N)=S)c1ccc(Nc2nc(SCC(C)C)nc(-c3ccc(F)cc3)c2C#N)cc1 :: inactive
N#Cc1c(-c2ccc(Cl)cc2)nc2c(-c3ccccc3)c(Nc3ccccc3)nn2c1N :: inactive
N#Cc1nc(-c2ccccc2)oc1N1CC[C@@H](CO)C1 :: inactive

// switching to the query compound
Hey, what did the test say about CCN1C(=S)N(CC)C2C1NN=C1SC(c3ccccc3)=CC(=O)N12 (stereo not given) ?
inactive
